The reported measurements were obtained from the supplement of paper PMC10567573.

B1: PTPRD (parent)
chain: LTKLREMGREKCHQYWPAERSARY

Variants of: B1
Assay: protein stability index of a GFP-peptide fusion (GPS, HEK-293T) (PSI 1-6); higher = more stable;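 also: lentivirally expressed fusions sorted by FACS into six bins by GFP to DsRed ratio, PSI derived from sequencing read proportions per bin multiplied by bin number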
Conditions: c terminus: a fixed tail appended
As shown below, each of these variants has a reported protein stability index value.

- mutation_annotation: "L4R"
  protein stability index: 2.92
- mutation_annotation: "E10L"
  protein stability index: 1.99
- mutation_annotation: "Q14A"
  protein stability index: 2.46
- mutation_annotation: "A22L"
  protein stability index: 2.12
- mutation_annotation: "L4F"
  protein stability index: 2.63
- mutation_annotation: "E10G"
  protein stability index: 2.25
- mutation_annotation: "E10I"
  protein stability index: 1.91
- mutation_annotation: "K3P"
  protein stability index: 2.66
- mutation_annotation: "S21N"
  protein stability index: 2.17
- mutation_annotation: "G8Q"
  protein stability index: 3.13
- mutation_annotation: "L1K"
  protein stability index: 3.36
- mutation_annotation: "C12P"
  protein stability index: 3.09
- mutation_annotation: "E10C"
  protein stability index: 2.65
- mutation_annotation: "C12E"
  protein stability index: 3.11
- mutation_annotation: "Y24L"
  protein stability index: 2.31
- mutation_annotation: "P17V"
  protein stability index: 1.74
- mutation_annotation: "L1H"
  protein stability index: 2.87
- mutation_annotation: "L1M"
  protein stability index: 2.95
- mutation_annotation: "H13M"
  protein stability index: 1.97
- mutation_annotation: "L4K"
  protein stability index: 2.8
- mutation_annotation: "P17T"
  protein stability index: 2.32
- mutation_annotation: "H13I"
  protein stability index: 2.33
- mutation_annotation: "K3M"
  protein stability index: 2.41
- mutation_annotation: "R5G"
  protein stability index: 3.18
- mutation_annotation: "P17S"
  protein stability index: 2.09
- mutation_annotation: "A18S"
  protein stability index: 2.17
- mutation_annotation: "R9D"
  protein stability index: 3.48
- mutation_annotation: "A18M"
  protein stability index: 1.97
- mutation_annotation: "G8I"
  protein stability index: 1.29
- mutation_annotation: "T2W"
  protein stability index: 1.78
